From: paper PMC8864165

- measured on: S. aureus DnaK (Staphylococcus aureus)
- Construct: His6-tag with TEV site ([…]) (N, cleaved yes); made in house; host or cells: E. coli (DE3) Rosetta pLysS
- Sequence (P99110 whole entry): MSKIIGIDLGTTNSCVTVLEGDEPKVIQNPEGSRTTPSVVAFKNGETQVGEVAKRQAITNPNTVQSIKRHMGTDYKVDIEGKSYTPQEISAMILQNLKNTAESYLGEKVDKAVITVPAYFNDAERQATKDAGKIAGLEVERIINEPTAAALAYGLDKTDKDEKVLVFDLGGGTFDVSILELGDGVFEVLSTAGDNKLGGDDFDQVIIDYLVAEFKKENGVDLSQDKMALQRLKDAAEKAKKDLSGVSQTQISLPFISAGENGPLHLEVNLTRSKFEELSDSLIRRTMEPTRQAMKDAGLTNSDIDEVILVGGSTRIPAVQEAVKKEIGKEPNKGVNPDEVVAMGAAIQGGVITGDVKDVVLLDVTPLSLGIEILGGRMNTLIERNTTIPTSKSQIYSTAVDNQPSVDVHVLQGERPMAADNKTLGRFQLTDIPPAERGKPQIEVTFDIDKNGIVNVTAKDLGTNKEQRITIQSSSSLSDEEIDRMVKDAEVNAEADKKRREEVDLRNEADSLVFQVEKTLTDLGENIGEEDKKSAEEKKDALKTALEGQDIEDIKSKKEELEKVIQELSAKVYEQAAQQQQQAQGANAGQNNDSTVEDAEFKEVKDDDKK
- procedure details: FP peptide binding screening against Cf-ARV-1502
- measurement parameters: screening: DnaK 16 µmol/L, unlabeled peptide 35 µmol/L, duplicate, below 1 = better than ARV-1502
observable: binding to S. aureus DnaK, FP-value normalized to ARV-1502

Past entries and their recorded results:
INSERT INTO assay_data (substance, measured_on, recorded_measurement) VALUES
  ('Chex-RPDKPRPSLPRSRPPRPVR-NH2 [compound 133, substituted analog of ARV-1502]', 'S. aureus DnaK (Staphylococcus aureus)', 'best binders'),
  ('Chex-RPDKPRPDKPRPRPPRPVR-NH2 [compound 108, substituted analog of ARV-1502]', 'S. aureus DnaK (Staphylococcus aureus)', 'bound neither'),
  ('Chex-RPDKPRPKSPRPRPPRPVR-NH2 [compound 122, substituted analog of ARV-1502]', 'S. aureus DnaK (Staphylococcus aureus)', 'bound neither'),
  ('Chex-RPDKPRPYKPDPRPPRPVR-NH2 [compound 160, substituted analog of ARV-1502]', 'S. aureus DnaK (Staphylococcus aureus)', 'best binders'),
  ('Chex-RPFFPRPYLPRSRPPRPVR-NH2 [compound 106, substituted analog of ARV-1502]', 'S. aureus DnaK (Staphylococcus aureus)', 'best binders');

Give binding to S. aureus DnaK, FP-value normalized to ARV-1502 for all substances that follow.
1. Chex-RPDDPRPKLPRPRPPRPVR-NH2 [compound 54, substituted analog of ARV-1502]
2. Chex-RPFFPRPKLPRPRPPRPVR-NH2 [compound 90, substituted analog of ARV-1502]
3. Chex-RPDKPRPYSPDPRPPRPVR-NH2 [compound 170, substituted analog of ARV-1502]

Result string:
best binders
best binders
best binders

Give binding to S. aureus DnaK, FP-value normalized to ARV-1502 for all substances that follow.
1. Chex-RPFFPRPYLPSPRPPRPVR-NH2 [compound 101, substituted analog of ARV-1502]
2. Chex-RPDKPRPYSPLPRPPRPVR-NH2 [compound 172, substituted analog of ARV-1502]
3. Chex-RPFFPRPSLPRPRPPRPVR-NH2 [compound 91, substituted analog of ARV-1502]

Result string:
1: best binders; 2: best binders; 3: best binders
